Data origin: the supplement of paper PMC10567573

Here, each record is paired with measured protein stability index data.
B1: RSPH3 (parent)
chain: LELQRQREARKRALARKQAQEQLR

# Variants of: B1
# Protocol Text: protein stability index of a GFP-peptide fusion (GPS, HEK-293T) (PSI 1-6); higher = more stable;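 further: lentivirally expressed fusions sorted by FACS into six bins by GFP to DsRed ratio, PSI derived from sequencing read proportions per bin multiplied by bin number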
# Study Conditions: c terminus: a fixed tail appended
Write no unit; give the number alone.

L14N    4.04
A9H    4.07
L3Y    3.89
R12L    3.22
E8M    3.43
K17M    4.14
A13P    4.14
E21V    3.31
E8T    4.06
L1G    4.14

For this variant ( R24L ), measured protein stability index is 3.18

For this variant ( R24I ), measured protein stability index is 3.46

For this variant ( L14D ), measured protein stability index is 4.66

For this variant ( R10N ), measured protein stability index is 4.28

For this variant ( Q18V ), measured protein stability index is 2.56
